Measured Signal/background of individual entries
- TARGET_OR_TEST_SYSTEM: T1, MAGEB2 peptide … (SEQ ID NO: 1) complexed with HLA-A*02:01 on the cell surface (human)
- T1 construct: whole, on cells; also called pMAGE-HLA; MAGEB2 pMHC
- MEASUREMENT_NOTES: flow cytometry, peptide-loaded T2 cells;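 also: binding of single-chain Fv antibody constructs, raised in XenoMouse, to peptide-pulsed T2 cells measured by flow cytometry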
I only need the number, thanks.

Asked: So what does the record say about Signal/background for 18181-A6 (scFv, scFv in bacterial lysate, detected with anti-Flag M2) scFv: EVQLLESGGGLVQPGGSLRLSCAASGFTFSNAWMSWVRQAPGKGLEWVGRIKGNTYGGTTDYAAPVKGRFTISRDDSKNTLYLQMNSLKTEDTAVYYCTTPSYSGSYYNYFSVMDVWGQGTTVTVSSGGGGSGGGGSGGGGSELVMTQSPSSLSASVGDRVTITCRASQSISSYLNWYQQKPGRAPKLLIFAASSLQGGVPSRFSGSGSGTDFTLTISSLQPEDFATYYCQQTYSMPFTFGPGTKLEIK ?
Given back: 430

Asked: Would you kindly share the measured Signal/background for 18081-B9 (scFv, scFv in bacterial lysate, detected with anti-Flag M2) scFv: EVQLLESGPGLVKPSETLSLTCTVSGDSISSSRYYWGWIRQPPGKGLEWIGSIYYSGSTYYNPSLKSRVTISVDTSKNQFSLKLSSVTAADTAVYYCARGIFGVITYFDYWGQGTLVTVSSGGGGSGGGGSGGGGSELVMTQSPDSLAVSLGERATINCKSSQSVLYSSNNKNYLAWYQQKPGQPPKLLIYWASTRESGVPDRFSGSGSGTDFTLTISSLQAEDVAVYYCQQFYSTPITFGQGTRLEIK ?
Given back: 153

Please examine the following record next.
Asked: If you can, please state the reported Signal/background value of 18182-B12 (scFv, scFv in bacterial lysate, detected with anti-Flag M2) scFv: EVQLLESGGGLVQPGGSLRLSCAASGFTFSSYAMSWVRQAPGKGLEWVSAISGSGGGTYYADSVKGRFTISRDNSKNTLYLQMSSLRAEDTAVYYCATGKGVHLGFDYWGQGTLVTVSSGGGGSGGGGSGGGGSELVLTQPPSVSVAPGQTARITCGGNNIGSKSVHWHQQKPGQAPVLVVYDDNDRPSGIPERFSGSNSGNTATLTISRVEAGDEADYYCQVWDYSSDHVVFGGGTKLTVL .
Given back: 208
